System: CD-1 mice
Assay: Fixed speed (16 r.p.m) rotorod assay of motor function
Format: in vivo
Conditions: dose 30; median of at least 4 mice; maximum score=60 s; 40 min post injection
Experimental: Male, experimentally naïve CD-1 mice of body weight range 25-35 g were used in these studies. […] After a 30 min period, the mice were removed and the number of marbles that were covered by at least ⅔rd by sawdust were counted as buried. […] In a separate group of sex, age and weight matched CD-1 mice, equivalent doses of test compound were evaluated on motor function using a fixed speed (16 r.p.m) rotorod assay. The best score from 3 attempts was recorded, with the maximum test duration of 60 s. […]
quantity_kind: Rotorod score (s)
Answers are plain numbers, in s.

Answered cases to consult:
>>> reported_measurement("CC(=O)N[C@H](COC(F)F)C(=O)NCc1ccc(Cl)cc1")
60
>>> reported_measurement("CC(=O)N[C@H](COC(F)F)C(=O)NCc1ccc(F)cc1")
60
>>> reported_measurement("COC[C@@H](NC(C)=O)C(=O)NCc1ccccc1 [Lacosamide, reference compound]")
60

Turning to the following compound.
Record request: Rotorod score value, item `CC(=O)N[C@H](COC(F)F)C(=O)NCc1ccccc1`
13

---

Test system: Sprague-Dawley rats
Experiment: Conditioned Emotional Response (CER) assay
Type: in vivo
Conditions: dose 3 (mg/kg); mean±SEM, at least 10 rats; *p<0.05 vs vehicle
quantity_kind: Suppression ratio (SR)

>>> reported_measurement("CC(=O)N[C@H](COC(F)F)C(=O)NCc1ccc(Cl)cc1")
"0.09 ± 0.04"
>>> reported_measurement("CC(=O)N[C@H](COC(F)F)C(=O)NCc1ccccc1")
"0.16 ± 0.03"
>>> reported_measurement("CC(=O)N[C@H](COC(F)F)C(=O)NCc1ccc(F)cc1")
"0.17 ± 0.06"

Record request: Suppression ratio (SR) value, item COC[C@@H](NC(C)=O)C(=O)NCc1ccccc1 [Lacosamide, reference compound]
0.16 ± 0.07

---

Test system: CD-1 mice
Assay: Marble Burying Assay
Assay type: in vivo
Settings: dose 10 (mg/kg), i.p or oral route; 22 marbles, 30 min; mean±SEM, at least 8 mice
quantity_kind: Number of marbles buried
One number for each entry.

Answered cases to consult:
>>> reported_measurement("COC[C@@H](NC(C)=O)C(=O)NCc1ccccc1 [Lacosamide, reference compound]")
18.0
>>> reported_measurement("CC(=O)N[C@H](COC(F)F)C(=O)NCc1ccc(Cl)cc1 [Example 23.1]")
12.3
>>> reported_measurement("CC(=O)N[C@H](COC(F)F)C(=O)NCc1ccccc1 [Example 19.1]")
9.7

Turning to the following molecule.
What Number of marbles buried appears in the records for this molecule with CD-1 mice? CC(=O)N[C@H](COC(F)F)C(=O)NCc1ccc(F)cc1 [Example 20.1]
14.9

---

Test system: Sprague-Dawley rats
Assay: Conditioned Emotional Response (CER) assay
Format: in vivo
Details: dose 10 (mg/kg); 40 min test session; mean±SEM
quantity_kind: Total number lever press
Answers are plain numbers.

Answered cases to consult:
>>> reported_measurement("CC(=O)N[C@H](COC(F)F)C(=O)NCc1ccc(Cl)cc1")
1034
>>> reported_measurement("COC[C@@H](NC(C)=O)C(=O)NCc1ccccc1 [Lacosamide, reference compound]")
1121
>>> reported_measurement("CC(=O)N[C@H](COC(F)F)C(=O)NCc1ccccc1")
1093

Record request: Total number lever press value, item `CC(=O)N[C@H](COC(F)F)C(=O)NCc1ccc(F)cc1`
1170

---

System: CD-1 mice
Test: Fixed speed (16 r.p.m) rotorod assay of motor function
Format: in vivo
Conditions: dose 3; median of at least 4 mice; maximum score=60 s; 40 min post injection
quantity_kind: Rotorod score (s)
Give bare numbers, in s.

Answered cases to consult:
>>> reported_measurement("CC(=O)N[C@H](COC(F)F)C(=O)NCc1ccc(Cl)cc1")
60
>>> reported_measurement("COC[C@@H](NC(C)=O)C(=O)NCc1ccccc1 [Lacosamide, reference compound]")
60
>>> reported_measurement("CC(=O)N[C@H](COC(F)F)C(=O)NCc1ccc(F)cc1")
60
>>> reported_measurement("CC(=O)N[C@H](COC(F)F)C(=O)NCc1ccccc1")
60

Record request: Rotorod score value, item CN1C(=O)CN=C(c2ccccc2)c2cc(Cl)ccc21 [Diazepam, reference compound]
40

---

System: Sprague-Dawley rats
Experiment: Conditioned Emotional Response (CER) assay
Assay type: in vivo
Details: dose 3 (mg/kg); 40 min test session; mean±SEM
quantity_kind: Total number lever press
Answers are plain numbers.

>>> reported_measurement("COC[C@@H](NC(C)=O)C(=O)NCc1ccccc1 [Lacosamide, reference compound]")
1166
>>> reported_measurement("CC(=O)N[C@H](COC(F)F)C(=O)NCc1ccc(F)cc1")
1188
>>> reported_measurement("CC(=O)N[C@H](COC(F)F)C(=O)NCc1ccccc1")
1169

Record request: Total number lever press value, item `CC(=O)N[C@H](COC(F)F)C(=O)NCc1ccc(Cl)cc1`
1091
